target: ACYP1; assay: pooled miR-30 sensor sort-seq; sequence = guide strand; settings: shRNA
Each record's sensor-assay potency score (higher = more potent) is compared with low interval: < -0.7; middle interval: ≥ -0.7 and < -0.4; high interval: ≥ -0.4 to give its class.

> print(dat)
          polymer.sequence      group.label
 1  TAGGACTTCCTCTTGTTTCAAG  middle interval
 2  TTAGATTTGTGTACAGTGGTAA    high interval
 3  TTCCTGCATATGACGCACCTTG     low interval
 4  TCTTGTTTCAAGCCATTCCTGC  middle interval
 5  TTTTCATTGTTGAAGTTTGCTT    high interval
 6  TTGTGTACAGTGGTAATCCTTC    high interval
 7  TCATTGTTGAAGTTTGCTTTGT  middle interval
 8  TATTAACACACAATAGTTCTAT    high interval
 9  TTGTCGATGTGTGATTTAGGAC  middle interval
10  TTCATAATCCACTGATATCAGG     low interval

###

molecular target: BRMS1L; assay: pooled miR-30 sensor sort-seq; sequence = guide strand; details: shRNA
Give 1 (yes) when the value for sensor-assay potency score (higher = more potent) is at least -0.2. Give 0 (no) when it is less.

> print(dat)
         polymer.sequence  group.label
1  TTCTTTATAAAGTTGATCTTTG      1 (yes)
2  TAACATATCAATGAGATCTATT       0 (no)
3  TTCTGAGCTATCTCCATCCTCG       0 (no)
4  TTGTAGTTTTGCATCCACCTGA      1 (yes)
5  TTCTTTACAGATTCTAAGCAGA       0 (no)
6  TTTGGTAACACTAATAAGGTAA      1 (yes)
7  TTCACAGTCTTCATCATCCATT       0 (no)

###

molecular target: PAQR6; assay: pooled miR-30 sensor sort-seq; sequence = guide strand; conditions: shRNA
Give Yes when the value for sensor-assay potency score (higher = more potent) is at least -1. Give No when it is less.

> print(dat)
         polymer.sequence  group.label
1  TAGGTTCCCAGCTGCAGCCAAG           No
2  TCTATAGGCAAATAGCTGCTGG          Yes
3  TGAGGACACAGTCCAAAGCCGA           No
4  TGTAATCAAAGCGTCCTGGTGC          Yes
5  AAAGAGTGGGAGGTTGTCGAAC           No
6  TAGGCGAAGGCTCCTGTGCGGA           No
7  TGTGAAAGCAGCAATAATGAGT          Yes

###

biological target: DDX28; test: pooled miR-30 sensor sort-seq; sequence = guide strand; conditions: shRNA
Give MET when the value for sensor-assay potency score (higher = more potent) is at least -1. Give NOT MET when it is less.

> print(dat)
         polymer.sequence  group.label
1  TAATCTTGCAGCGTTGGGGGGA          MET
2  TAGCTGAGAGTCTTGCCACTGC          MET
3  TAGTCCTGGAAGACTTCTCCTT      NOT MET
4  TAGTGCGTGCAGCACACGGGGC      NOT MET
5  TCATCCAACACCAAGAAGGAGA          MET
6  TTGGATTTTGTGGTCATCCAGA          MET
7  TTGACAACCAGCTCCACACCAG          MET

###

Form field: sensor-assay potency score (higher = more potent) (one value per entry).
molecular target: MYCBPAP; test: pooled miR-30 sensor sort-seq; sequence = guide strand; conditions: shRNA
Measure: sensor-assay potency score (higher = more potent)

> print(dat)
         polymer.sequence  quantitative.readout
1  TAGATCAGAAACAGACTCCGAT                 0.675
2  TTTTCTTTGACATTCTCTGAGG                -0.601
3  TTCTTTGTCTTTGATCCCCAGT                -0.525
4  TCTCCTTGTAGGACATTGCTAA                 -0.62
5  TTTCTTGTCTTCTTTGTCTTTG                -0.276
6  TTTCTTGTCATCCTTTGCCTTG                 -0.95
7  TATGACTTTCTTGTCATCCTTT                0.0986
8  TTTTGTCTTGGTCATGACCAGA                 -1.08
9  TGCAATTCTCTTAAAATCCTGG                -0.695

###

target: LAMB4; test: pooled miR-30 sensor sort-seq; sequence = guide strand; settings: shRNA
Give 1 when the value for sensor-assay potency score (higher = more potent) is at least 0.08. Give -1 when it is less.

> print(dat)
         polymer.sequence  group.label
1  TTGCTCTTTCTATTGTATCTTT           -1
2  TTTGTCTTCTAACAGAGTCATG           -1
3  TTTAGCTGCATGATTTGTCTTC           -1
4  TTTGTTAGTCCTGTAGTGCTTG            1
5  TTCAACACAGTTGTGAAGCTGA            1
6  TTTGACTGTAGAGTCTTGGGTA            1
7  TTGACTTTTAAGAATTTCCCAG           -1

###

molecular target: ZNF654; test: pooled miR-30 sensor sort-seq; sequence = guide strand; settings: shRNA
Form field: sensor-assay potency score (higher = more potent) (one value per entry).
Measure: sensor-assay potency score (higher = more potent)

> print(dat)
         polymer.sequence  test.system   result
1  TTCTGAACTAAACTGTCTGTTT       ZNF654    0.135
2  TAAAGTTTCCTTCTTGATCTGT       ZNF654    0.508
3  TTACACATGCAAAACTGCCTTT       ZNF654    0.225
4  TTGAGCTGCAGCAATTTGCTGC       ZNF654    0.117
5  TGAGTCTGTCTGAACATCCCAA       ZNF654   -0.147
6  TTTGCTAGTAGAAACTGGCAGA       ZNF654  -0.0895

###

target: BOP1; assay: pooled miR-30 sensor sort-seq; sequence = guide strand; conditions: shRNA
Form field: sensor-assay potency score (higher = more potent) (one value per entry).
Measure: sensor-assay potency score (higher = more potent)

> print(dat)
         polymer.sequence  quantitative.readout
1  TTGGGCATCAGCTTCTTGGTGA                 0.503
2  TCTACATTCACCCTCATCTTGC                -0.893
3  AGGATCGTCCATCTTGTCCAGG                 -2.16
4  TTGCTATCGTAGCTCCCACAGA                 -1.14

###

Form field: sensor-assay potency score (higher = more potent) (one value per entry).
target: PECR; experiment: pooled miR-30 sensor sort-seq; sequence = guide strand; conditions: shRNA
Measure: sensor-assay potency score (higher = more potent)

> print(dat)
         polymer.sequence  quantitative.readout
1  TTAAAGGTCTCCTTCATCTTTT                -0.272
2  TAGAACTGATGTGTTCAGCAGG                -0.616
3  TTCATCTTTTTGACAACAGAAA                  -1.6
4  TAGTTCTCCACAGCAGTCTGGG                -0.504
5  TAAACTGCTTTGCACATGTAGA                 -1.07
6  TCAATCTCTCCAACTTACGGGA                 -0.32
7  TTGATCCGTATTCCACTGCAGG                -0.697
8  TCTGGGAATAAATAACTCCAGG                  -1.4

###

target: RNF219; test: pooled miR-30 sensor sort-seq; sequence = guide strand; details: shRNA
Measure: sensor-assay potency score (higher = more potent)

> print(dat)
         polymer.sequence  test.system  quantitative.readout
1  TTCACTTGAATTTTTTAGCTGT       RNF219                 0.783
2  TCTGTCTGAAACAAGCAGCTTG       RNF219                -0.169
3  TAGCTTATCCACATCATCTTTC       RNF219                -0.402
4  TTGATATAGGTCTTTGTTCTTA       RNF219                -0.397
5  TTTTGGATAAACATAAGCCTGA       RNF219                -0.319
6  TCTGTTATCAACTTCAGCCTTC       RNF219                 0.456
7  TACTTGTATCTGTCACATCTAA       RNF219                -0.451
8  ATACTTATCACTTCGTTCCAGG       RNF219                -0.456
9  TAAACAATCTATTTCGTCCTCA       RNF219                 0.474
